assay-comment: RP, Phenomenex Kinetex EVO C18, 100 × 2.1 mm, 2.6 µm, 40 °C, 0.4 mL/min, estimated dead time 0.55 min; A: water + 0.2% formic acid; B: acetonitrile + 0.2% formic acid; gradient (min/%B) 0/5 0.5/5 7/95 8/95 8.5/5 12/5
study-conditions: stereoisomer not certain
observable: LC retention time (min)

In the examples that follow, each entry is paired with its recorded LC retention time.
compound: O=C(O)c1ccc(OS(=O)(=O)O)c(O)c1 [Protocatechuic acid-4-O-sulfate]
observable: LC retention time
value-reported: 2.38
--
compound: O=C(O)c1ccc(OS(=O)(=O)O)cc1 [Hydroxybenzoic acid-4-sulfate]
observable: LC retention time
value-reported: 2.55
--
compound: CC1OC(OC2C(O)C(OCCc3ccc(O)c(O)c3)OC(CO)C2OC(=O)C=Cc2ccc(O)c(O)c2)C(O)C(O)C1O (configuration not stated) [Verbascoside]
observable: LC retention time
value-reported: 4.84
--
compound: O=C(O)C1OC(Oc2ccc(C=Cc3cc(O)cc(O)c3)cc2)C(O)C(O)C1O (configuration not stated) [Resveratrol 4-O-glucuronide]
observable: LC retention time
value-reported: 4.64

P: O=C1CCC(Cc2cc(O)cc(OC3OC(C(=O)O)C(O)C(O)C3O)c2)O1 (configuration not stated) [5-(5'-Hydroxyphenyl)-gamma-valerolactone-3'-glucuronide]
Q: O=C1CCC(Cc2cc(O)cc(O)c2)O1 (configuration not stated) [5-(3',5'-Dihydroxyphenyl)-gamma-valerolactone]
Prompt: Larger number for LC retention time: P , or Q ? Pick one and reply with its label.
Completion: Q

----------
assay-comment: RP, Agilent ZORBAX RRHD Eclipse Plus C18, 50 × 2.1 mm, 1.8 µm, 30 °C, 0.4 mL/min, estimated dead time 0.28 min; A: water + 0.1% formic acid, pH 3; B: acetonitrile + 0.1% formic acid, pH 3; gradient (min/%B) 0/1 5/10 8/25 9.1/99 10/99 12/1
study-conditions: stereoisomer not certain
observable: LC retention time (min)

1: O=C(O)c1cc(O)c(O)c(O)c1
2: O=C(O)C1OC(Oc2cc(O)c3c(=O)c(O)c(-c4ccc(O)c(O)c4)oc3c2)C(O)C(O)C1O (configuration not stated) [Quercetin-7-O-glucuronide]
Prompt: Pick one: 1 or 2 . Which one has the lower reported LC retention time? Provide the label of your selected option as the answer.
Completion: 1

1: O=C(O)CNC(=O)c1ccccc1O [2-Hydroxyhippuric acid]
2: O=C(O)Cc1ccc(O)c(O)c1 [3,4-Dihydroxyphenylacetic acid]
Prompt: Which value of LC retention time is numerically greater: that of 1 or that of 2 ? When you have decided, please share the label of that item.
Completion: 1

I: O=C(O)c1cccc(O)c1 [3-Hydroxybenzoic acid]
II: O=C(O)C=Cc1ccccc1 [Cinnamic acid-trans]
Prompt: Of the pair I and II , name the member with the lesser recorded LC retention time. API: response body contains the label of the selected item.
Completion: I

I: CC(Oc1ccc(O)cc1)C(=O)O (single isomer, unassigned; (+)) [(+)-2-(4-Hydroxyphenoxy)propionic acid]
II: O=C(O)c1ccc(O)c(O)c1
Prompt: Decide: I or II , by lowest recorded LC retention time. Refer to your chosen item by its label in the answer.
Completion: II
(II: 2.12 min, I: 6.31 min)

----------
assay-comment: RP, Phenomenex Synergi Hydro-RP, 250 × 2 mm, 4 µm, 25 °C, 0.2 mL/min, estimated dead time 2.5 min; A: water + 0.1% formic acid, pH 3; B: acetonitrile + 0.1% formic acid, pH 3; gradient (min/%B) 0/0.5 7/0.5 12/12.5 25/16.3 47/35 48/65 50/65 50.1/0.5
study-conditions: stereoisomer not certain
observable: LC retention time (min)

compound: O=C(O)c1ccccc1O
value-reported: 37.4

compound: O=C(O)CC(O)C(=O)O (stereo unspecified)
value-reported: 3.87

compound: O=C(O)c1cc(O)c(O)c(O)c1
value-reported: 13.9

compound: O=c1cc(-c2ccc(O)c(O)c2)oc2cc(O)cc(O)c12
value-reported: 47

1: C=CCCC(=NOS(=O)(=O)O)SC1OC(CO)C(O)C(O)C1O (stereo unspecified)
2: Cn1c(=O)c2c(ncn2C)n(C)c1=O
Prompt: Param pair: 1 , 2 . Output: the one whose LC retention time is numerically greater. Which one? Tell me its label.
Completion: 2
